Reference for the values: patent US11547697B2

pIC50 for assorted molecules
- TEST TARGET: p110α/p85α (Homo sapiens (Human))
- Sequence (P42336 whole entry): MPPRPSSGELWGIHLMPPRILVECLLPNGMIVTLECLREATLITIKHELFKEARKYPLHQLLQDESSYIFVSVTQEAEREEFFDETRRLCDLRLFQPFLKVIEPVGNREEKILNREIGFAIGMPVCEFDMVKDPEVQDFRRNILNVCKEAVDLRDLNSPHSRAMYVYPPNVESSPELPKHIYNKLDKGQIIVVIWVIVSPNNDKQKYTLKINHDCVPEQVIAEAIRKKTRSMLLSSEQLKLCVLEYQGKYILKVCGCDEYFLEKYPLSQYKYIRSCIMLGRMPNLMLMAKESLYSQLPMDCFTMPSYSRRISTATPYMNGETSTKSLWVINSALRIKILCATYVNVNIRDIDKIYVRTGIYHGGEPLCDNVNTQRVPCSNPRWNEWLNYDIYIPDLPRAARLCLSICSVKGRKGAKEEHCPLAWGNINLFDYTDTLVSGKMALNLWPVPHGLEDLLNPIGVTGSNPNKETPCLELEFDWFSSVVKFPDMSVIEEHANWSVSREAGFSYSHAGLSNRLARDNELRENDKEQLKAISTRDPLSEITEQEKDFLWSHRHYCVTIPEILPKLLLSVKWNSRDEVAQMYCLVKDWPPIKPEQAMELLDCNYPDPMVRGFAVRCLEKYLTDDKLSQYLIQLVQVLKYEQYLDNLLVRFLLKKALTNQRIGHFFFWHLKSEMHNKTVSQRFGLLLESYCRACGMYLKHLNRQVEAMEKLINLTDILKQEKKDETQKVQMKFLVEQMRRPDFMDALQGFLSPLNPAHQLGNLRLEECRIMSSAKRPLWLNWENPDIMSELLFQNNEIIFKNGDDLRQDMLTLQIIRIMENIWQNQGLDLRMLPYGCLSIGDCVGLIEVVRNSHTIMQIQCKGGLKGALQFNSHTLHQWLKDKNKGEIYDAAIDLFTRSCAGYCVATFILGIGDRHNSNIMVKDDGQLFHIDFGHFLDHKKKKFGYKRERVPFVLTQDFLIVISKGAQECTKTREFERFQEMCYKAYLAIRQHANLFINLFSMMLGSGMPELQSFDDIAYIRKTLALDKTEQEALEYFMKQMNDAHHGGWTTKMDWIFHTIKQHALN
- Sequence (P27986 whole entry partner): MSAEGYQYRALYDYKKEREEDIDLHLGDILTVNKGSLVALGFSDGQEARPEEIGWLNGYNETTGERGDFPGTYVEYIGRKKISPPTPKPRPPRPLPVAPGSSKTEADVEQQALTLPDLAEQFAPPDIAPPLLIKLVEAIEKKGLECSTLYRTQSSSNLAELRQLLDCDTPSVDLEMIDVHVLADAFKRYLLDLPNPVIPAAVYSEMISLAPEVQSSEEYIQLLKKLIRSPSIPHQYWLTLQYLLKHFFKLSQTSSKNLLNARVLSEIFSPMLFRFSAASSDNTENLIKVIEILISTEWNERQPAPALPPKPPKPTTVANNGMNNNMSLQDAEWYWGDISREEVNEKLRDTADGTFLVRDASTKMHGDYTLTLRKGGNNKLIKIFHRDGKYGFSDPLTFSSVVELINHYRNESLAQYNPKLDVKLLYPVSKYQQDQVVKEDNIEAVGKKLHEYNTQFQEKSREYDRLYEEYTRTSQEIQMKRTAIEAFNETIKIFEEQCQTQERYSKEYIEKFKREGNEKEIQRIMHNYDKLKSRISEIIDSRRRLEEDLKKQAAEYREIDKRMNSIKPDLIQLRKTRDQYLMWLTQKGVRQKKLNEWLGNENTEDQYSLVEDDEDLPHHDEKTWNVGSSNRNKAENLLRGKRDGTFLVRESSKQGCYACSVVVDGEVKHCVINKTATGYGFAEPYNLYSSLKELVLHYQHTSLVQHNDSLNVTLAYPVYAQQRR
- ASSAY NOTES: PI 3-Kinase (human) HTRF assay, p110α/p85α
- Type: biochemical
- CONDITION SET: read-out: PI3K α IC50
pIC50: −log10 of the molar value.
ENDPOINT: pIC50

>>> endpoint_result("CN1CCN(c2ccc(-c3cnc4ccc(-c5ccc6oc(N)nc6c5)cn34)cn2)CC1 [compound 42]")
"> 7.00"
>>> endpoint_result("Nc1nc2cc(-c3cn4c(-c5cn[nH]c5)cnc4cn3)ccc2o1 [compound 69]")
"> 6.00"
>>> endpoint_result("Nc1nc2cc(-c3ccc4ncc(OC5CCOCC5)nc4c3)ccc2o1 [compound 49]")
"> 7.00"
>>> endpoint_result("CC(C)(C)N1CCN(C(=O)c2cnc3ccc(-c4ccc5oc(N)nc5c4)cn23)CC1 [compound 191]")
"> 7.00"
>>> endpoint_result("Nc1nc2cc(-c3ccc4ncc(-c5cnn(CCO)c5)nc4c3)ccc2o1 [compound 108]")
"> 7.00"
